Cited source for all entries: ChEMBL document CHEMBL1649066

Test: Absorption in dog at 0.5 mg/kg, iv and 1 mg/kg, po
Format: ADME, organism-based, Canis lupus familiaris
Details: in vivo, read-out: Activity
measurement.kind: Fa

- Cc1nnc(C(C)C)n1[C@@H]1C[C@H]2CC[C@@H](C1)N2CC[C@H](NC(=O)C1CCC(F)(F)CC1)c1ccccc1 [MARAVIROC]: 70%

* * *

Assay: Tmax in rat at 2 mg/kg, po
Assay type: ADME, organism-based
Parameters: dose 2 mg/kg, route oral
Settings: in vivo
As shown below, each of these compounds has a reported Tmax value.
measurement.kind: Tmax

* COC(=O)N1CCc2c(nc(C)n2[C@H]2C[C@H]3CC[C@@H](C2)N3CC[C@H](NC(C)=O)c2cccc(F)c2)C1 | 2 h
* COC(=O)N1CCc2nc(C)n([C@H]3C[C@H]4CC[C@@H](C3)N4CC[C@H](NC(C)=O)c3cccc(F)c3)c2C1 | 2 h

* * *

Experiment: Absorption in rat at 1 mg/kg, iv and 10 mg/kg, po
Format: ADME, organism-based
Conditions: in vivo, read-out: Activity
measurement.kind: Fa (%)

- Cc1nnc(C(C)C)n1[C@@H]1C[C@H]2CC[C@@H](C1)N2CC[C@H](NC(=O)C1CCC(F)(F)CC1)c1ccccc1 [MARAVIROC]: 20

* * *

As shown below, each of these compounds has a reported clearance value.
Experiment: Clearance in rat at 1 mg/kg, iv and 2 mg/kg, po
Type: ADME, organism-based
Conditions: in vivo
measurement.kind: clearance (mL/min/kg)

- COC(=O)N1CCc2nc(C)n([C@H]3C[C@H]4CC[C@@H](C3)N4CC[C@H](NC(C)=O)c3cccc(F)c3)c2C1: 46
- CC(=O)N[C@@H](CCN1[C@@H]2CC[C@H]1C[C@@H](n1c(C)nc3c1CCN(C(=O)C(C)C)C3)C2)c1cccc(F)c1: 201

* * *

Test system: Human immunodeficiency virus 1
Test: Antiviral activity against maraviroc-resistant HIV1 isolate CC185 at 100 times IC90 concentration
Format: functional, organism-based
The source made the active and inactive calls. The calls are words filed in the database; no cut-off is given here.
Labels: active, inactive

• COC(=O)N1CCc2nc(C)n([C@H]3C[C@H]4CC[C@@H](C3)N4CC[C@H](NC(C)=O)c3cccc(F)c3)c2C1 = active
• Cc1nnc(C(C)C)n1[C@H]1C[C@H]2CC[C@@H](C1)N2CC[C@H](NC(=O)C1CCC(F)(F)CC1)c1cccc(F)c1 = inactive
• COC[C@@H](c1ccc(C(F)(F)F)cc1)N1CCN(C2(C)CCN(C(=O)c3c(C)ncnc3C)CC2)C[C@@H]1C = active

* * *

Test: Apparent permeability from apical to basolateral side of human Caco2 cells
Conditions: Caco-2
As shown below, each of these compounds has a reported Papp A→B value.
measurement.kind: Papp A→B

- CC(=O)N[C@@H](CCN1[C@@H]2CC[C@H]1C[C@@H](n1c(C)nc3c1CCN(c1ccncn1)C3)C2)c1cccc(F)c1: 4 ×10⁻⁶ cm/s
- Cc1nc(C(C)C)n([C@H]2C[C@H]3CC[C@@H](C2)N3CC[C@H](NC(=O)C2CCC(F)(F)CC2)c2ccccc2)n1: 11 ×10⁻⁶ cm/s
- CC(=O)N[C@@H](CCN1[C@@H]2CC[C@H]1C[C@@H](n1c(C)nc3c1CCN(C(C)=O)C3)C2)c1cccc(F)c1: < 1 ×10⁻⁶ cm/s
- COC(=O)N1CCc2c(nc(C)n2[C@H]2C[C@H]3CC[C@@H](C2)N3CC[C@H](NC(C)=O)c2cccc(F)c2)C1: 3 ×10⁻⁶ cm/s
- CC(=O)N[C@@H](CCN1[C@@H]2CC[C@H]1C[C@@H](n1c(C)nc3c1CN(C(C)=O)CC3)C2)c1ccccc1: < 1 ×10⁻⁶ cm/s
- CCCC(=O)N1CCc2c(nc(C)n2[C@H]2C[C@H]3CC[C@@H](C2)N3CC[C@H](NC(C)=O)c2cccc(F)c2)C1: 1 ×10⁻⁶ cm/s
- CC(=O)N[C@@H](CCN1[C@@H]2CC[C@H]1C[C@@H](n1c(C)nc3ccccc31)C2)c1ccccc1: 13 ×10⁻⁶ cm/s
